Test system: RXF 393 renal
procedure summary: NCI tumour cell line growth inhibition, 48 h
endpoint: log10 of TGI (log10 of the value in µM)
Base-10 log of TGI, unit µM.

Ask | Form field: reported log10 of TGI of CCOc1ccccc1-n1c(CN2CCN(C(=O)COc3ccc(CNCCCCCCN4C5CCCC4CC(OC(=O)Nc4cc(C)ccc4OC)C5)cc3)CC2)nc2ccccc2c1=O (stereo unspecified)
Reply | 0.46

Ask | Item: CC1=C(C(=O)OCCO[N+](=O)[O-])C(c2cccc([N+](=O)[O-])c2)C(C(=O)OC(C)C)=C(C)N1 (stereo unspecified)
Reply | 1.50

Ask | Item: O=C1NC(N/N=C/c2ccccc2)=N/C1=C\c1ccco1
Reply | 1.91

###

System: SN12C renal
procedure summary: NCI tumour cell line growth inhibition, 48 h
Entries and their TGI values follow.

# compound, TGI
rows = [
    ("COc1cc2cnc3c4cc(OC(C)C)c(OC)cc4ccc3c2cc1OC", "> 100 µM"),
    ("Cc1cc2nc(C(Cl)Cl)nc(-c3ccc(Cl)cc3)n2n1", "> 100 µM"),
    ("O=c1c2cccnc2n2n1Cc1ccccc1C2", "> 100 µM"),
]

Ask | Form field: reported TGI of COc1cc2c(c(OC)c1O)C(=O)C(OC)C(c1ccc(O)c(O)c1)O2 (stereo unspecified)
Reply | > 100 µM

Ask | Item: COc1ccc2c(c1)C(=O)/C(=C/c1ccc(OCC(=O)Nc3nccs3)cc1)O2
Reply | 18.9 µM

Ask | Item: O[C@H]1[C@H]2c3cc4c(cc3CN3CCC(=C[C@@H]1O)[C@H]23)OCO4
Reply | 9.5 µM

###

Tested on: SK-OV-3 ovarian
procedure summary: NCI tumour cell line growth inhibition, 48 h; in the data active = GI50 below about 0.43 µM; inactive = the rest
Hi! Could you answer with just one of these? t for active, f for inactive

The examples below pair each entry with its known result.
# molecule, assay system, assigned label
rows = [
    ("O=C(CCl)N1c2ccccc2Oc2ccc3ccccc3c21", "SK-OV-3 ovarian", "f"),
    ("COc1ccc(C2=CSc3cc(Cl)c(C)cc3S(=O)(=O)N2C(C)=O)cc1", "SK-OV-3 ovarian", "f"),
    ("CCCCCCCCSC1=CC(=O)c2nc3ccccc3c3ccnc1c23", "SK-OV-3 ovarian", "f"),
]

Ask | Query: recorded result category for CNC(=O)c1cc(Oc2ccc3nc(NC(=O)Nc4ccc(Cl)c(C(F)(F)F)c4)sc3c2)ccn1 in this test
Reply | f

Ask | Item: CCOc1ccccc1-n1c(CN2CCN(C(=O)COc3ccc(CNCCCCCCN4C5CCCC4CC(OC(=O)Nc4cc(C)ccc4OC)C5)cc3)CC2)nc2ccccc2c1=O (centres undefined)
Reply | f

Ask | Item: C[C@@H](CS(C)(=O)=O)Nc1ncc2cc(Oc3ccc(F)cc3F)c(=O)n(C)c2n1
Reply | f

Ask | Item: NC(CSC(c1ccccc1)(c1ccccc1)c1ccc2c(c1)OCO2)C(=O)O (centres undefined)
Reply | t

Ask | Item: COc1ccc(-c2cc(-c3ccc(Nc4nc(Nc5ccccc5)nc(Nc5ccc(Cl)cc5)n4)cc3)nc(N)c2C#N)cc1
Reply | f

Ask | Item: CC1(C)COC(c2ccc(C(F)(F)F)cc2C(O)c2ccc3ccccc3c2)=N1 (centres undefined)
Reply | f

# credit: PubChem BioAssay (NCI)
